test system: isolated renal cortical cells (IRCC); experiment: Effect of antioxidant or biotransformation inhibitor pretreatment on TCNB cytotoxicity, LDH release in IRCC; conditions: pretreatment compound followed by 1.0 mM 2,4,5-TCNB, 90 min; mean ± S.E., n = 4
Marks after values point to notes of the source that are not given here.
Attribute: % of lactate dehydrogenase release, PreTx + TCNB

Query (compound): CCCCOCCOCCOCc1cc2c(cc1CCC)OCO2 [PiBx, Piperonyl butoxide] ; field requested: % of lactate dehydrogenase release, PreTx + TCNB
24 ± 3 ^c %

Tell me the measured % of lactate dehydrogenase release, PreTx + TCNB of `NNC(=O)c1ccncc1` , please.
34 ± 1 ^c,d %
